# experimentalTarget: CXCR2 (Homo sapiens, UniProt P25025)
# Construct: expressed in transfected cells; host or cells: HEK293 cells stably expressing Gα16 and CXCR2
# Sequence (P25025 whole entry): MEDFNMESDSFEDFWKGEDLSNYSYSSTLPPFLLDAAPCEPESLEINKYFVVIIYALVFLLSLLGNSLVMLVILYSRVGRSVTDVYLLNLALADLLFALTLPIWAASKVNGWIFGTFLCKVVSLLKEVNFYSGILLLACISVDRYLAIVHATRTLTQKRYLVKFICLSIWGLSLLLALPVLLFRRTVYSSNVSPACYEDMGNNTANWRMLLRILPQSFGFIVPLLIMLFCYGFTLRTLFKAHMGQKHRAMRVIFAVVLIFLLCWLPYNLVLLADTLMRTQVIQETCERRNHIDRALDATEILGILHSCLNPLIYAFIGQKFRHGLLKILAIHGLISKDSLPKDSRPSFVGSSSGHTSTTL
# experimentDescription: CXCR2 antagonistic activity assay (IL-8-induced intracellular calcium change, Fluo-4 AM, HEK293 cells stably expressing Gα16 and CXCR2)
# Assay type: cell-based
# conditionLabel: HEK293 cells expressing Gα16 and CXCR2, IL-8 stimulated calcium change; read-out: CXCR2 IC50
outcomeMeasure: IC50

Consider the worked cases shown below.
QUERY: Hello, I am looking for reported IC50 with CXCR2 (Homo sapiens, UniProt P25025) for "CN(C)C(=O)c1cccc(Nc2nccc(Nc3ccccc3)n2)c1O" . Could you help?
RESULT: > 100 µM

QUERY: Which measured IC50 belongs to "N#Cc1ccc(Nc2nnc(-c3ccc(C(F)(F)F)cc3)[nH]2)c(O)c1" , tested on CXCR2 (Homo sapiens, UniProt P25025)?
RESULT: > 100 µM

QUERY: Param readout = IC50; param system = CXCR2 (Homo sapiens, UniProt P25025); param query = "CN(C)C(=O)c1cccc(Nc2nnc(-c3ccccc3)[nH]2)c1O" ; response: value
RESULT: 76 µM

QUERY: Identify the measured IC50 of "CN(C)C(=O)c1cccc(Nc2nn(Cc3ccccc3)c(=O)[nH]2)c1O" for CXCR2 (Homo sapiens, UniProt P25025).
RESULT: > 100 µM

QUERY: Identify the measured IC50 of "N#Cc1ccc(Nc2nnc(-c3ccccc3)[nH]2)c(O)c1" for CXCR2 (Homo sapiens, UniProt P25025).
RESULT: 18.5 µM

Continuing:
QUERY: What measured IC50 is associated with "N#Cc1ccc(Nc2nnc(-c3ccccc3Br)[nH]2)c(O)c1" on CXCR2 (Homo sapiens, UniProt P25025)?
RESULT: 25.4 µM
